Target: UniProtKB P56817
Procedure summary: In Vitro BACE Cell-based Assay (HEK cell assay): Aβ40 in conditioned medium of cells stably expressing Amyloid Precursor Protein, sandwich ELISA
Assay context: read-out: HEK cell assay
pIC50: −log10 of the molar value.
Measured parameter: pIC50

INSERT INTO results (query_smiles, reported) VALUES
  ('COC(C)(C)CCc1ccc2c(c1)[C@]1(COC(N)=N1)c1cc(-c3cccnc3)ccc1O2', '> 7.00');

Look up UniProtKB P56817 data: pIC50 of Cc1cc(-c2ccc3c(c2)[C@]2(COC(N)=N2)c2cc(-c4cccnc4)ccc2O3)on1 , then report it.
> 7.00

Look up UniProtKB P56817 data: pIC50 of CN(C)c1ncc(-c2ccc3c(c2)[C@]2(COC(N)=N2)c2cc(OCC(C)(C)C)ccc2O3)cn1 , then report it.
5.30 to 6.00

----------
Target: BACE1 (Homo sapiens, UniProt P56817)
Sequence (P56817 46-501, species assumed): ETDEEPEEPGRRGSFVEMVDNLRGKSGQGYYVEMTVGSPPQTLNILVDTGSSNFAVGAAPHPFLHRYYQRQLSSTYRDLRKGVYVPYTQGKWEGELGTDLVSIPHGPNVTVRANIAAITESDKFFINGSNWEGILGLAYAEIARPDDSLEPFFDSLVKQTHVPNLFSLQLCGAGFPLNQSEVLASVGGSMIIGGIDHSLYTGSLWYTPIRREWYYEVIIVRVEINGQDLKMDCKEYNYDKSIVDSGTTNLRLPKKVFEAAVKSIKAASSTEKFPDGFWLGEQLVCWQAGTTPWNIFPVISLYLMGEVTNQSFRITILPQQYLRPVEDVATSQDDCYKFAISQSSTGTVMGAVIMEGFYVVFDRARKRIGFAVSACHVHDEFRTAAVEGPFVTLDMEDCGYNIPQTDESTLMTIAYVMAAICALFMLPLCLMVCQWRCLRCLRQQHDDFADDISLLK
Procedure summary: In Vitro BACE Cell-based Assay (HEK cell assay): Aβ40 in conditioned medium of cells stably expressing Amyloid Precursor Protein, sandwich ELISA
Assay context: Table III; IC50's in uM ranges; read-out: HEK cell assay
Collected IC50 values appear next to each entry.

Consider the reported IC50 for these compounds:
INSERT INTO assay_data (compound, measured_parameter, reported) VALUES
  ('CC(C)(C)C#Cc1cnc2c(c1)[C@]1(COC(N)=N1)c1cc(-c3cccnc3)ccc1O2 [Example 185b]', 'IC50', '< 0.1 µM'),
  ('COc1ccc2c(c1)[C@]1(N=C(N)O[C@@H]1C)c1cc(-c3cncnc3)ccc1O2 (single isomer, unassigned) [Example 125c]', 'IC50', '> 5 µM'),
  ('NC1=N[C@]2(CO1)c1cc(C#CCCO)ccc1Oc1ccc(-c3cccnc3)cc12', 'IC50', '< 0.1 µM');

API: the following record is the query input.
Answer with the recorded IC50 for the compound listed here: Cc1ccccc1-c1ccc2c(c1)[C@]1(COC(N)=N1)c1cc(-c3cncnc3)ccc1O2
0.1 to 1 µM

----------
Target: BACE1 (Homo sapiens, UniProt P56817)
Procedure summary: In Vitro Enzymatic BACE FRET (Fluorescence Resonance Energy Transfer) Assay
Assay type: biochemical
Assay context: Table III; IC50's in uM ranges; read-out: BACE1 FRET assay
Collected IC50 values appear next to each entry.

Consider the reported IC50 for these compounds:
INSERT INTO results (compound, measured_parameter, reported) VALUES
  ('CC(C)(C)CCc1ccc2c(c1)[C@]1(COC(N)=N1)c1cc(-c3cccnc3)cnc1O2 [182b]', 'IC50', '< 0.1 µM'),
  ('CC(C)(C)C#Cc1cnc2c(c1)[C@]1(COC(N)=N1)c1cc(-c3cccnc3)ccc1O2 [Example 185b]', 'IC50', '< 0.1 µM'),
  ('NC1=N[C@]2(CO1)c1cc(C#CCCO)ccc1Oc1ccc(-c3cccnc3)cc12', 'IC50', '< 0.1 µM'),
  ('CC1(COc2ccc3c(c2)[C@]2(COC(N)=N2)c2cc(C#CC4CC4)ccc2O3)COC1', 'IC50', '< 0.1 µM'),
  ('NC1=N[C@@]2(CO1)c1cc(Br)ccc1Oc1ccc(Oc3ccccn3)cc12', 'IC50', '> 5 µM');

Answer with the recorded IC50 for the compound listed here: CC(C)(F)COc1ccc2c(c1)[C@]1(COC=N1)c1cc(Br)c(N)nc1O2
0.1 to 1 µM

Answer with the recorded IC50 for the compound listed here: CC(C)(O)COc1ccc2c(c1)[C@]1(COC(N)=N1)c1cc(-c3cncc(F)c3)ccc1O2
< 0.1 µM

Answer with the recorded IC50 for the compound listed here: NC1=N[C@]2(CO1)c1cc(OCC3CCOC3)ccc1Oc1ccc(-c3cncnc3)cc12 (some centres unmarked)
1 to 5 µM
